These data points were gathered from ChEMBL document CHEMBL3885861.

- Species on record: Rattus norvegicus
- test-method-notes: Open TG-GATES - Regimen: Single
- Assay type: toxicity, organism-based, Sprague-Dawley
- Design: regimen Single, gender Male, age 6 weeks
- condition-notes: in vivo, po, 1000 mg/kg, 6 h, tissue Blood, route gavage, dose level High
The compounds listed here are annotated with their Ret.
The answer is to be given in %; state only the numeric part.

Field request: Ret | item: "O=C(OC[C@H]1O[C@@H](OC(=O)c2cc(O)c(O)c(OC(=O)c3cc(O)c(O)c(O)c3)c2)[C@H](OC(=O)c2cc(O)c(O)c(OC(=O)c3cc(O)c(O)c(O)c3)c2)[C@@H](OC(=O)c2cc(O)c(O)c(OC(=O)c3cc(O)c(O)c(O)c3)c2)[C@@H]1OC(=O)c1cc(O)c(O)c(OC(=O)c2cc(O)c(O)c(O)c2)c1)c1cc(O)c(O)c(OC(=O)c2cc(O)c(O)c(O)c2)c1"
9.7

Also need "CN/C(=N/CCSCc1nc[nH]c1C)NC#N" , thanks.
7.6

Also need "COC(=O)C1=C(C)NC(C)=C(C(=O)OC)C1c1ccccc1[N+](=O)[O-]" , thanks.
9.2

Also need "CNC(=C[N+](=O)[O-])NCCSCc1ccc(CN(C)C)o1" , thanks.
7.1

As a next step, examine the compound that follows.
Field request: Ret | item: "Cc1nnc2n1-c1ccc(Cl)cc1C(c1ccccc1Cl)=NC2"
8.5
